Listed here are compounds together with their documented fold change (FC).
Species on record: Homo sapiens
Experiment: Inhibition of mRNA splicing of SMN2 exon 7 in GM03813 fibroblasts derived from SMA patient assessed as maximum fold increase of SMN protein level by 1.5 times after 24 hrs by HTRF assay relative to control
experimental endpoint: fold change (FC)

mol=COc1ccc(-c2cc3ccc(N4CCNCC4)cn3c(=O)n2)cc1OC experimental_endpoint="fold change (FC)" observed_measurement=1
mol=COc1ccc(-c2cc3ccc(N4CCNCC4)cc3oc2=O)cc1 experimental_endpoint="fold change (FC)" observed_measurement=1.1
mol=O=c1oc2cc(N3CCNCC3)ccc2cc1-c1nc2ccccc2o1 experimental_endpoint="fold change (FC)" observed_measurement=1
mol=O=c1oc2cc(N3CCNCC3)ccc2cc1-c1nc2ccccc2s1 experimental_endpoint="fold change (FC)" observed_measurement=1
mol=COc1ccc(-c2cc(=O)n3cc(N4CCNCC4)ccc3n2)cc1OC experimental_endpoint="fold change (FC)" observed_measurement=1.6
mol=COc1ccc(-c2cc3ccc(N4CCNCC4)nc3oc2=O)cc1OC experimental_endpoint="fold change (FC)" observed_measurement=1
mol=COc1ccc(-c2nc3ccc(N4CCNCC4)cc3[nH]c2=O)cc1OC experimental_endpoint="fold change (FC)" observed_measurement=1.1
mol=O=c1oc2cc(N3CCNCC3)ccc2cc1-c1ccccc1 experimental_endpoint="fold change (FC)" observed_measurement=1
mol=COc1ccc(-c2cc3ccc(N4CCNCC4)cc3oc2=O)cc1OC experimental_endpoint="fold change (FC)" observed_measurement=1.3
mol=COc1ccc(-c2cnc3cc(N4CCNCC4)ccn3c2=O)cc1OC experimental_endpoint="fold change (FC)" observed_measurement=1
mol=O=c1oc2cc(N3CCNCC3)ccc2cc1-c1cn2ccccc2n1 experimental_endpoint="fold change (FC)" observed_measurement=1.3
mol=O=c1oc2cc(N3CCNCC3)ccc2cc1-c1cn2ccsc2n1 experimental_endpoint="fold change (FC)" observed_measurement=1.5
mol=COc1ccc(-c2cc(=O)n3cc(N4CCNCC4)ccc3c2)cc1OC experimental_endpoint="fold change (FC)" observed_measurement=1.6
mol=COc1ccc(-c2cc3ccc(N4CCNCC4)cc3c(=O)o2)cc1OC experimental_endpoint="fold change (FC)" observed_measurement=1.6
mol=O=c1oc2cc(N3CCNCC3)ccc2cc1-c1nc2ccccc2[nH]1 experimental_endpoint="fold change (FC)" observed_measurement=1.2
mol=COc1ccc(-c2cn3ccc(N4CCNCC4)cc3nc2=O)cc1OC experimental_endpoint="fold change (FC)" observed_measurement=1
mol=COc1ccc(-c2cc3ccc(N4CCNCC4)cc3c(=O)[nH]2)cc1OC experimental_endpoint="fold change (FC)" observed_measurement=1.2

* * *

Species on record: Homo sapiens
Test: Inhibition of mRNA splicing of human SMN2 exon 7 transfected in HEK293H cells assessed as maximum fold of increase in full-length SMN2 mRNA level after 24 hrs by RT-qPCR analysis relative to control
Assay type: cell-based
Listed here are compounds together with their documented fold change (FC).
experimental endpoint: fold change (FC)

mol=O=c1oc2cc(N3CCOCC3)ccc2cc1-c1nc2ccccc2o1 experimental_endpoint="fold change (FC)" observed_measurement=1.1
mol=O=c1oc2cc(N3CCNCC3)ccc2cc1-c1nc2ccccc2o1 experimental_endpoint="fold change (FC)" observed_measurement=7
mol=CN(C)c1ccc2cc(-c3nc4ccccc4o3)c(=O)oc2c1 experimental_endpoint="fold change (FC)" observed_measurement=1.2
mol=O=c1oc2cc(N3CCCCC3)ccc2cc1-c1nc2ccccc2o1 experimental_endpoint="fold change (FC)" observed_measurement=1
